Reference for the values: ChEMBL document CHEMBL1123779

# Tested on: Plasmodium berghei
# Assay Protocol: Suppressive blood schizonticidal antimalarial activity evaluated in the trophozoite-induced Plasmodium berghei infection in mice (Mus musculus) at a dose 640 mg/kg given as number of toxic deaths
# Assay type: toxicity, organism-based
# Parameters: dose 640 mg/kg
# Assay Conditions: in vivo
Attribute Measured: Toxic deaths
# answer = number (no unit)

Example entries and their recorded answers appear below.
Compound	Tested System	Toxic deaths
CCCCC(C)Oc1c(OC)cc(NC(C)CCCN)c2ncc(C)cc12 (centres undefined)	Plasmodium berghei	5
CCCCCCOc1c(OC)cc(NC(C)CCCN)c2ncc(C)cc12 (centres undefined)	Plasmodium berghei	4

Give its Toxic deaths value. Item: COc1cc(NC(C)CCCN)c2ncccc2c1 (centres undefined)
5

Another compound to look at: C=CCCOc1c(OC)cc(NC(C)CCCN)c2nccc(C)c12 (centres undefined)
5

Item: CCCCCCOc1c(OC)cc(NC(C)CCCN)c2ncccc12 (centres undefined)
1

Another compound: CCCCCCOc1c(OC)cc(NC(C)CCCN)c2nc(C)cc(C)c12 (centres undefined)
5

Subsequent entry: COCCCCCCOc1c(OC)cc(NC(C)CCCN)c2nccc(C)c12 (centres undefined)
5

Proceed to COc1cc(NC(C)CCCN)c2nccc(C)c2c1OCCCCCCCCOc1ccccc1 (centres undefined)
1

Likewise for CCCCCCCCOc1c(OC)cc(NC(C)CCCN)c2ncccc12 (centres undefined) ?
1

Same lookup for COc1cc(NC(C)CCCN)c2nccc(C)c2c1OC (centres undefined) , please.
5

Also check COc1cc(NC(C)CCCN)c2nccc(C)c2c1OCCCCOc1ccccc1 (centres undefined)
5

Likewise for COc1cc(NC(C)CCCN)c2nccc(C)c2c1OCC1CCCCC1 (centres undefined) ?
5

Also need CCCCCOc1c(OC)cc(NC(C)CCCN)c2nccc(C)c12 (centres undefined) , thanks.
5

Then CCCCCCCCOc1c(OC)cc(NC(C)CCCN)c2nccc(C)c12 (centres undefined) ?
2

Now consider CCCOc1c(OC)cc(NC(C)CCCN)c2ncccc12 (centres undefined) and answer again.
5

Could you do the same for CCCCOc1c(OC)cc(NC(C)CCCN)c2nccc(C)c12 (centres undefined) , please?
5

----------
# System: Mus musculus
# Assay Protocol: Suppressive blood schizonticidal antimalarial activity evaluated in the trophozoite-induced Plasmodium berghei infection in mice (Mus musculus) at a dose 40 mg/kg
# Format: functional
# Set-up: unit not given beside the values
Attribute Measured: Delta MST
// print number alone

Compound	Delta MST
COc1cc(NC(C)CCCN)c2ncc(C)cc2c1 (centres undefined)	7.5
CCCCCCCCOc1c(OC)cc(NC(C)CCCN)c2ncccc12 (centres undefined)	6.7
CCCCCCCCCCCCOc1c(OC)cc(NC(C)CCCN)c2nccc(C)c12 (centres undefined)	6.4
CCCCCCOc1c(OC)cc(NC(C)CCCN)c2ncccc12 (centres undefined)	6.5
COc1cc(NC(C)CCCN)c2nc(C)ccc2c1 (centres undefined)	5.5

API: value(readout= Delta MST, system= Mus musculus, query= CCCCCOc1c(OC)cc(NC(C)CCCN)c2ncccc12 (centres undefined) )
6.1

How about this compound: COc1cc(NC(C)CCCN)c2nccc(C)c2c1OC (centres undefined)
7.1

Moving on to the next compound: COc1cc(NC(C)CCCN)c2nccc(C)c2c1OCCCCCCCCOc1ccccc1 (centres undefined)
9.4

Check COc1cc(NC(C)CCCN)c2ncccc2c1 (centres undefined) too.
5
